I'd appreciate it if you could supply viability, T/C values for the items below.
- System: 695427-040-R-J1-PDC complex spheroid viability;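 also: spheroids exposed to compounds for seven days; 100% = DMSO vehicle control viability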
- experiment.description: Anticancer human tumor 695427-040-R-J1-PDC patient-derived colon adenocarcinoma cell line growth inhibition [POLQ]
- test.settings: second compound 1 µM; first compound 10 µM; stronger effect = lower value
Give bare numbers, in %.

Recorded viability, T/C, per entry:
| compound | viability, T/C [%] |
| --- | --- |
| CCc1cc2c(N3CCc4c(cc(Cn5ccnc5)cc4-c4cn(C)nc4C(F)(F)F)C3=O)cc(C)nc2c(OC)n1 + Nc1ccc(C#CCN(C(=O)Cc2ncc(C(F)(F)F)cc2C(F)(F)F)c2ccc(F)cc2)nn1 | 98.3 |
| CC1COCCN1c1cc(-c2ccnn2C)c2ccnc(-c3ccn[nH]3)c2n1 (stereo not given) + Cc1cccc(N(C)C(=O)C2C(O)CCN2c2nc(C)cc(C(F)(F)F)c2C#N)c1 | 49.5 |

Please look at the items below and tell me viability, T/C for each one, in order.
1. CC1COCCN1c1cc(C2(S(C)(=N)=O)CC2)nc(-c2ccnc3[nH]ccc23)n1 (stereo not given) + COC1C(OC(N)=O)C(O)C(Oc2ccc3c(O)c(NC(=O)c4ccc(O)c(CC=C(C)C)c4)c(=O)oc3c2C)OC1(C)C
2. O=C(Nc1ccc(O)c(NS(=O)(=O)c2ccc(F)cc2)c1)c1ccc(-c2ccccc2)cc1 + COC1C(OC(N)=O)C(O)C(Oc2ccc3c(O)c(NC(=O)c4ccc(O)c(CC=C(C)C)c4)c(=O)oc3c2C)OC1(C)C
3. CCc1cc2c(N3CCc4c(cc(Cn5ccnc5)cc4-c4cn(C)nc4C(F)(F)F)C3=O)cc(C)nc2c(OC)n1 + Cc1cccc(N(C)C(=O)C2C(O)CCN2c2nc(C)cc(C(F)(F)F)c2C#N)c1

Completion:
1. 86.5
2. 90.8
3. 85.2

Values from PubChem BioAssay AID1963840
